tested on: KM20L2 colon; assay: NCI tumour cell line growth inhibition, 48 h
attribute.measured: TGI

Can you look up the measured TGI of COc1ccc(C(=O)Nc2ccccc2C#N)cc1 for me?
> 100 µM

Can you look up the measured TGI of CSc1nc(NC2OC(CO)C(O)C(O)C2O)c(N)c(=O)n1C (stereo not given) for me?
> 100 µM

Can you look up the measured TGI of CCN1N=CSC12C(=O)N(c1ccccc1)C(=O)N2c1ccccc1 (stereo not given) for me?
> 100 µM

Can you look up the measured TGI of Cc1cc(N(CCC#N)CCC#N)ccc1N=Nc1ccc([N+](=O)[O-])cc1 for me?
> 100 µM

Can you look up the measured TGI of Cc1ccc(S(=O)(=O)OC(C=O)C(O)C(O)COC(c2ccccc2)(c2ccccc2)c2ccccc2)cc1 (stereo not given) for me?
27.4 µM

Next:
Can you look up the measured TGI of Fc1cccc(C=NC23CC4CC(CC(C4)C2)C3)c1 for me?
> 100 µM

---

tested on: DU-145 prostate; test: NCI tumour cell line growth inhibition, 48 h
Quick list: TGI per entry.

Can you look up the measured TGI of O=C(O)C1CCCCN1CCc1c[nH]c2ccccc12 (stereo not given) for me?
> 100 µM

Can you look up the measured TGI of C/C=C(\C)C(=O)O[C@@H]1C=CC(=O)O[C@H]1COC(=O)[C@H](C)O for me?
31.8 µM

Can you look up the measured TGI of COc1ccc(-n2c(-c3ccccc3)cc(-c3cccs3)c2-c2cccs2)cc1 for me?
> 100 µM

Can you look up the measured TGI of O=C(O)c1ccccc1/C=C1\Cc2ccc3c(c2C1=O)CCCC3 for me?
> 100 µM

Can you look up the measured TGI of COc1cc2c(cc1OCCCN1CCN(CCCOc3cc4c(cc3OC)C(=O)C3CCC[C@H]3C=N4)CC1)N=C[C@@H]1CCCC1C2=O (stereo not given in full) for me?
> 100 µM

Can you look up the measured TGI of Cc1cc2c(cc1-c1cc3c(cc1C)C(C(C)C)=C(O)C(=O)/C3=C\Nc1cccc3c(N)cccc13)/C(=C/Nc1cccc3c(N)cccc13)C(=O)C(O)=C2C(C)C for me?
> 100 µM

Can you look up the measured TGI of CSC(=S)Nc1cc(C)ccn1 for me?
> 100 µM

Can you look up the measured TGI of CCOP(=O)(OCC)OC1CC(n2cnc3c(N(CC)CC)ncnc32)OC1CO[Si](C)(C)C(C)(C)C (stereo not given) for me?
28.8 µM

Can you look up the measured TGI of CC[C@]12C=CCN3CC[C@]4(C(=C(C(=O)OC)C1)Nc1ccccc14)[C@@H]32 for me?
14.5 µM

Can you look up the measured TGI of CN(C)CC1CCCC(CN(C)C)C1=O (stereo not given) for me?
29.4 µM

Can you look up the measured TGI of CC(=O)NC1C(OCc2ccccc2)OC(CO)C(O)C1OC(C)C(=O)NC(C(=O)NC(CCC(=O)Nc1ccc2c(c1)CN1C(=O)c3ccccc3C1=N2)C(N)=O)C(C)C (stereo not given) for me?
> 100 µM

Can you look up the measured TGI of COC(=O)Oc1nn(C(=O)OC)c(=O)c2ccccc12 (tested in a mixture with another compound) for me?
> 100 µM

Can you look up the measured TGI of COc1ccc2c(c1)OCC1Cc3cccc(OC)c3OC21 (stereo not given) for me?
> 100 µM

Can you look up the measured TGI of N/C(=N/O)c1cn(C2OC(CO)C(O)C2O)c2ncnc(NO)c12 (stereo not given) for me?
> 40 µM

Can you look up the measured TGI of O=Cc1cc(O)ccc1Br for me?
> 100 µM

Can you look up the measured TGI of c1ccc(COc2ccc(Nc3ncnc4ccc(-c5ccco5)cc34)cc2)cc1 for me?
24.6 µM

Can you look up the measured TGI of COc1cc([C@@H]2c3cc4c(cc3[C@@H](N=Cc3ccc(C(=O)O[C@H]5C[C@H]6OC[C@@]6(OC(C)=O)[C@H]6[C@H](OC(=O)c7ccccc7)[C@]7(O)C[C@H](OC(=O)[C@H](OC(=O)c8ccc(C=N[C@@H]9c%10cc%11c(cc%10[C@@H](c%10cc(OC)c(O)c(OC)c%10)[C@H]%10C(=O)OC[C@@H]%109)OCO%11)cc8)[C@@H](NC(=O)c8ccccc8)c8ccccc8)C(C)=C([C@@H](OC(C)=O)C(=O)[C@]56C)C7(C)C)cc3)C3COC(=O)C32)OCO4)cc(C)c1O (stereo not given in full) for me?
> 50 µM

---

tested on: NCI-H226 lung; assay: NCI tumour cell line growth inhibition, 48 h
attribute.measured: GI50

Field: example entries. Status: answers known.
Can you look up the measured GI50 of C#CCSc1nnnn1-c1ccc(Br)c(C)c1 for me?
26400 nM

Can you look up the measured GI50 of Cn1cccc1C1CC(=O)N(CCC[Se]C#N)C1=O (centres undefined) for me?
1620 nM

Can you look up the measured GI50 of CC1OC(OC2C(OC3CCC4(C)C(CCC5(C)C4CC=C4C6CC(C)(C)CCC6(CO)C(O)CC45C)C3(C)C)OC(C(=O)O)C(OC3OC(COC4OC(CO)C(O)C(O)C4O)C(O)C(O)C3O)C2O)C(O)C(O)C1O (centres undefined) for me?
3350 nM

Can you look up the measured GI50 of CN(C)c1ccc(N=C(C#N)c2nc(N)nc(N3CCOCC3)n2)cc1 for me?
> 100000 nM

Can you look up the measured GI50 of Cn1cc(-c2nonc2-c2cn(C)c3ccc(Br)cc23)c2ccccc21 for me?
4610 nM

Can you look up the measured GI50 of CCCCCCCCCCCCCCCc1ccc(C(=O)C[n+]2ccccc2)cc1 for me?
4150 nM

Can you look up the measured GI50 of OCCC#Cc1ccccc1C#Cc1ccccc1 for me?
15200 nM

Can you look up the measured GI50 of CC/C(=C(/CC)c1ccc(OP(=O)([O-])[O-])cc1)c1ccc(OP(=O)([O-])[O-])cc1.N.N.N.N.[Pt+4].[Pt+4] for me?
2310 nM

Next:
Can you look up the measured GI50 of Cn1cc(-c2csc(-c3cn(C)c4ncccc34)n2)c2ccccc21 for me?
860 nM

Can you look up the measured GI50 of C/C(=N\NC(=S)Nc1ccccc1)c1ccccn1 for me?
217 nM

Can you look up the measured GI50 of CC1(C)CCC(CN2CCN(c3ccc(C(=O)NS(=O)(=O)c4ccc(NCC5CCOCC5)c([N+](=O)[O-])c4)c(Oc4cnc5[nH]ccc5c4)c3)CC2)=C(c2ccc(Cl)cc2)C1 for me?
2360 nM

Can you look up the measured GI50 of CCN1C(=O)N(CC)C2C1NN=c1s/c(=C\c3ccc([N+](=O)[O-])cc3)c(=O)n12 (centres undefined) for me?
2160 nM

Can you look up the measured GI50 of COc1cc(-c2cn(-c3ccc(Cl)cc3)c(=O)n2-c2ccccc2)cc(OC)c1OC for me?
82100 nM

Can you look up the measured GI50 of CCN(CC)c1ccc(/C=C/C2=[N+](C)c3ccccc3C2(C)C)cc1 for me?
992 nM

---

Quick list: GI50 per entry.
system: SK-MEL-28 melanoma; assay: NCI tumour cell line growth inhibition, 48 h

Can you look up the measured GI50 of COc1ccc(C2=NN(c3ccc(S(N)(=O)=O)cc3)C(c3ccc(Cl)cc3)C2)c(O)c1 (stereo unspecified) for me?
5060 nM

Can you look up the measured GI50 of Cc1ccc2c(c1)/C(=N\N=C/c1cn(C(C)C)c3ccccc13)C(=O)N2 for me?
21900 nM

Can you look up the measured GI50 of O=C1c2cccnc2-c2nc(-c3ccccc3)cc3c2c1nc1ccccc13 for me?
14800 nM

Next:
Can you look up the measured GI50 of c1ccc(CNc2nc(Nc3ccc(-c4nc5ccccc5[nH]4)cc3)c3cn[nH]c3n2)cc1 for me?
2150 nM

Can you look up the measured GI50 of O=C1/C(=C\c2ccccc2)CN(C(=O)c2ccccc2F)C/C1=C\c1ccccc1 for me?
2080 nM

---

tested on: RXF-631 renal; experiment: NCI tumour cell line growth inhibition, 48 h
Use yes when the recorded TGI is no lower than 40 µM; use no when it is lower.

Is TGI at least 40 µM? Consider Clc1ccc(C2=NN(c3ccccc3)C3c4cc(Br)ccc4OCC23)cc1 (configuration not stated)
yes

Is TGI at least 40 µM? Consider COc1ccc(C=O)c(N(C)C(=O)C(C)(C)C)c1
yes

Is TGI at least 40 µM? Consider C=C1C(=O)C23C(O)C1CCC2C12CO[C@]3(O)[C@@H](O)C1C(C)(C)CCC2O (some centres not stated)
no

Is TGI at least 40 µM? Consider C[CH2][Sn]([CH2]C)([O]C(=O)c1cc(OC)c(OC)c(OC)c1)[O][Sn]([CH2]C)([CH2]C)[O]C(=O)c1cc(OC)c(OC)c(OC)c1
yes

Is TGI at least 40 µM? Consider CC1=C(C(=O)Nc2cc(F)c(F)cc2F)C(c2cccc([N+](=O)[O-])c2)C(C(=O)Nc2ccccc2C(F)(F)F)=C(C)N1 (configuration not stated)
yes

Is TGI at least 40 µM? Consider CC(=O)OCC1OC(n2cnc3c(I)nc(I)nc32)C(OC(C)=O)C1OC(C)=O (configuration not stated)
no

Is TGI at least 40 µM? Consider O=C1/C(=C/c2ccccc2Cl)COc2ccccc21
no
